Numbers sourced from the nanobody polyreactivity screen of Harvey et al. (2022).

test: yeast display, Sf9 membrane polyspecificity reagent, FACS + sequencing; frameworks hold sequencing errors
Experimental Endpoint: polyreactivity (PSR sort gate)

Some solved cases for reference:
| Sequence Entry | polyreactivity (PSR sort gate) |
| --- | --- |
| QVQLVESGGGLVQAGGRLRLSCAASGSNFGSNAMGWYRQAPGKESEFVAVITCRVGDTYYADSVKGRFTISRDNAKNTVYLQMYSLKPEDTAVYYCNVDWKVYGAPDYRIAWKYDYWGQGTQVTVSS | low polyreactivity |
| QVQLVESGGGLVQAGGSLRLSCAASGFTFRDYAMGWYRQAPGKERELVAAITRRGGNTYYADSVKGRFTISRDNAKNTVYLQMNSLKPEDTAVYYCAARALSGHYDYWGQGTQVTVSS | high polyreactivity |
| QVQLVESGGGLVQAGGSLRLSCAASGSIFSTNGMGWYRQAPGKERELVAAISTGGRTYYADSVKGRFTISRDNAKNTVYLQMNSLKPEDTAVYYCAKRFGYRSTQILDYWGQGTQVTVSS | low polyreactivity |
| QVQLVESGGGLVQAGGSLRLSCAASGFIFYYYAMGWYRQAPRKERELVAAISRSGGSTYYADSVKGRFTISRDNAKNTVYLQMNSLKPEDTAVYYCNTVPGTLYFRYDYWGQGTQVTVSS | high polyreactivity |

I would be grateful if you could share the reported polyreactivity (PSR sort gate) for QVQLVESGGGLVQAGGRLRLSCAASGRTFGPNVMGWYRQAPGKERELVAAITSGGTTYYADSVKGRFTISRDNAKNTVYLQMTSLIPADTAVYYCAATFYPYQVHHYYYWGQGTQVTVSS .
low polyreactivity

---

assay: yeast display, Sf9 membrane polyspecificity reagent, FACS + sequencing; frameworks hold sequencing errors
Experimental Endpoint: polyreactivity (PSR sort gate)

| Sequence Entry | Result |
| --- | --- |
| QVQLVESGGGLVQAGGSLRLSCAASGSIVYRYSMGWYRQAPGKERELVAGITFGAGTYYADSVKGRFTISRDNAKNTVYLQMNSLKPEDTAVYYCNAIHLPRHRDYWGQGTQVTVSS | low polyreactivity |
| QVQLVESGGGLVQAGGSLRLSCAASGSIFDLNAMGWYRQAPGKERELVAAISKSGGSTYYADSVKGRFTISRDNAKNTVYLQMNSLKPEDTAVYYCATSGDRLVWGQGTQVTVSW | low polyreactivity |

---

assay: yeast display, Sf9 membrane polyspecificity reagent, FACS + sequencing; frameworks hold sequencing errors
Experimental Endpoint: polyreactivity (PSR sort gate)

| Sequence Entry | Result |
| --- | --- |
| QVQLVESGGGLVQAGGSLRLSCAASGRTFYWNAMGWYRQAPGKERELVAAISWRGGSTYYADSVKGRFTISRDNAKNTVYLQMNSLKPEDTAVYYCAAYHSREYDYWGQGTQVTVSS | high polyreactivity |
| QVQLVESGGGLVQAGGSLRLSCAASGSIFYINAMGWYRQAPGKERELVAAINRGGSTNYADSVKGRFTISRDNAKNTVYLQMYSLKPEDTAVYYCAAYIYKTYRYYYWGQGTQVTVSS | high polyreactivity |

---

test: yeast display, Sf9 membrane polyspecificity reagent, FACS + sequencing; frameworks hold sequencing errors
Experimental Endpoint: polyreactivity (PSR sort gate)

Record excerpt, results attached:
| Sequence Entry | polyreactivity (PSR sort gate) |
| --- | --- |
| QVQLQGSGAGLVQAGGSLRLSCAPSGYILQNVPMGWNRQAPGKERELVAGIDNGTSTNYADSVNGSFTISRDNAKNTVYLQMNSLKPEDTAVYYCAAAGQADETLGYWGQGTQVTVSR | low polyreactivity |
| QVQLVESGGGLVQAGGILSLSCADSGRIFDIYAMGWYRQAPGKERELVASISWSGDSTYYADSVKGRFTISRDNAKNTVYLQMNSLKPEDTAVYYCDAVGEDTEGYDFDYWGQGTQVTVSS | low polyreactivity |
| QVQLVESGGGLVQAGGSLRLSCAASGFTFSAYTMGWYRQAPGKERELVAAINWSAANTYYADSVKGRFTISRDNAKNTVSLQMNSLKPEDTAVYYCNAEDDYTYDRSFGGYKYDYWGQGTQVTVSS | low polyreactivity |
| QVQLVESGGGLVQAGGSLLLSCAASGNIIYSNALGWYRQGPGKERELVAAISSGGITYYADSVKGRFTISRDNAKNTVYLQMNSLKPEDTAVYYCAAYIRNWRATYEYWGQGTQVTVSS | high polyreactivity |

Let's switch to this sequence now.
Entry QVQIVESGAGLVQAGGSLRLSCAASGSIYAPNAMGWYRQAPGKERELVAAISRSGGRTYYADSVKGRFTISRDNAKNTVYLQMNSLKPEDTAVYYCAADYKHQRTYGSWGQGTQVSVSS : reported polyreactivity (PSR sort gate) = ?
high polyreactivity
